Measured target: T1, recombinant human ADAMTS5 (R&D Systems cat #2198-AD) (human, UniProt Q9UNA0 262-622, limits assumed)
T1 sequence: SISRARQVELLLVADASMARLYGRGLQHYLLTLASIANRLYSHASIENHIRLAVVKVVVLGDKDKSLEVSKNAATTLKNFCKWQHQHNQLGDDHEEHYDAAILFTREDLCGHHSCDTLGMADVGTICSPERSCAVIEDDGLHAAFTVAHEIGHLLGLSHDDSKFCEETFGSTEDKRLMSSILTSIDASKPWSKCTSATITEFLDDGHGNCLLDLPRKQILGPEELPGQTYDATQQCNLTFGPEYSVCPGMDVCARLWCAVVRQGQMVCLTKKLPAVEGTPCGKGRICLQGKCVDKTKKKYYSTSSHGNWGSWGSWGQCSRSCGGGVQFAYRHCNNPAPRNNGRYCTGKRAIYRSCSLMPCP
Procedure details: cell-based or functional assay
Would you mind telling me the reported AlphaLISA potency IC50, Human of each entry?

I'd like to know its AlphaLISA potency IC50, Human. The binder in question is Nanobody 11B06 (VHH, tagged as tested (anti-Flag detection, IMAC)) VHH: EVQLVESGGGLVQAGGSLRLSCAASGLTFRRNAMGWFRQAPGKERELLAGINWSGGTTYYVDSVKGRFTISRDNAKNTVDLQMISPKPEDTAVYYCAADGDIGTLVNDENPRYWGQGTLVTVSS 0.1 nM

Again, but for Nanobody 2D07 (VHH, tagged as tested (anti-Flag detection, IMAC); also called 02D07; 2D7) VHH: EVQLVESGGGLVQAGGSLRLSCSFSGPGRTFARYAMGWFRQAPGKNRDFITGISGSGDSTYYVYPMKDRFTISRDNAKNMVYLQMNALKPEDTAVYYCAADREINRIANDKELDFWGQGTLVTVSS 0.19 nM

Again, but for Nanobody 3D01 (VHH, tagged as tested (anti-Flag detection, IMAC); also called 03D01) VHH: EVQLVESGGGLVQAGGSLRLSCAPSGFTFSPYYMGWFRQAPGKERDFVAAISRSRGTTYYLDSTEGRFTISRDNANDTVYLQMNSLNPEDTAVYYCAAGRSPGDPSRTYLYDYWGQGTLVTVSS 0.39 nM
